Experimental system: Ataxin-2 (Homo sapiens) (UniProt Q99700)
Sequence (Q99700 whole entry): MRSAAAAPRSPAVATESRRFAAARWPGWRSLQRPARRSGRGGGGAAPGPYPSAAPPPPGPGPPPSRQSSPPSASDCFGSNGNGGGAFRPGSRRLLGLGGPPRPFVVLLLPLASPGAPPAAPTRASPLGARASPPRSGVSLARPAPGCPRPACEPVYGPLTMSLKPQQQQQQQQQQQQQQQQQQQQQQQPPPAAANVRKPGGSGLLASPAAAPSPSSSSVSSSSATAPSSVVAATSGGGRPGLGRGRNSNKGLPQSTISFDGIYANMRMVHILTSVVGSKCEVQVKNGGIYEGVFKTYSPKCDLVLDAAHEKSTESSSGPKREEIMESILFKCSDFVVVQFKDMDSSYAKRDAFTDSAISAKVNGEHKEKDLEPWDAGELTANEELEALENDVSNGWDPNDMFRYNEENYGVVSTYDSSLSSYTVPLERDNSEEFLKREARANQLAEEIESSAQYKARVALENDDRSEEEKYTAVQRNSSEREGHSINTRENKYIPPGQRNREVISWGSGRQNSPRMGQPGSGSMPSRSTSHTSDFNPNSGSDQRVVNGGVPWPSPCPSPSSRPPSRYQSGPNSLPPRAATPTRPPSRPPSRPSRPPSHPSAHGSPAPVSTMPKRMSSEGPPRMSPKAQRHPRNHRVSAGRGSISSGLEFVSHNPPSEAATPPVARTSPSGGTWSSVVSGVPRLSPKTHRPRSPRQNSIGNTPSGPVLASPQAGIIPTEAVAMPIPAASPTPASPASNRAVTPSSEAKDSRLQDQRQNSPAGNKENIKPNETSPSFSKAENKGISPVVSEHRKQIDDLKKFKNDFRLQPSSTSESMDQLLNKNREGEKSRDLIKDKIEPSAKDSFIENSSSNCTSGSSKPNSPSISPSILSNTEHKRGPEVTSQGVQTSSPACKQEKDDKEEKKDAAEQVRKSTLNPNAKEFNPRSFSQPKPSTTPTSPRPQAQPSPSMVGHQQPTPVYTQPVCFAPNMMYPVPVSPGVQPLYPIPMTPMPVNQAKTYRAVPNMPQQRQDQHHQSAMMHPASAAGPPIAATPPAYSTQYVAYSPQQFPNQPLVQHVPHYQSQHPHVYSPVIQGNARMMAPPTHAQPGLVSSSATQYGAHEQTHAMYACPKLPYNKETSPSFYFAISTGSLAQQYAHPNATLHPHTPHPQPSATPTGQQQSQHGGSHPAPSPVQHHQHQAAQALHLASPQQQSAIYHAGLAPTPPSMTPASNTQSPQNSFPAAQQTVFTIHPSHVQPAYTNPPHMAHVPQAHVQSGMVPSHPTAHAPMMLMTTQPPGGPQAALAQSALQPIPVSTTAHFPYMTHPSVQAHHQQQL
Assay explanation: qHTS for Inhibitors of ATXN expression.
Assay type: functional
About 2,100 (0.53%) of roughly 400,000 compounds were called active. Another 14% or so got no clear call; they are omitted. The rule behind the calls is not given here. The entries come from a sample that favours actives as a whole.
Return exactly one item of 1 (active), 0 (inactive)

Challenge: Each compound tested received a call. Report the one for `O=C(Nc1nnc(C(F)(F)F)s1)c1c(F)cccc1F` .
Response given: 0

Challenge: Dear all, I need the recorded test outcome for `COc1cccc(NC(=O)Cn2cc(C(=O)C3CCCCC3)c3ccccc32)c1` , thank you.
Response given: 1

Challenge: Tell me the assay call for `CC1CCN(C(=O)CCC(=O)Nc2nnc(C(F)(F)F)s2)CC1` please.
Response given: 0

Challenge: What outcome does the record of this test show for `COc1cccc(NC(=O)N(Cc2cn(C)c3ccccc23)C2CCCCCC2)c1` ?
Response given: 1

Challenge: Query: recorded result category for COc1cccc(NC(=O)N2CCCC2C(=O)NCc2ccccc2F)c1 (stereo not given) in this test
Response given: 0

Challenge: For `COc1cccc(NC(=O)CN2C(=O)c3cccc4cccc2c34)c1` , which call appears in the assay record?
Response given: 0

Challenge: I would be grateful if you could indicate the recorded call for `COc1ccc(-n2c(=O)c3ccccc3n(CC(=O)Nc3cccc(OC)c3)c2=O)cc1` .
Response given: 1

Challenge: So what was the verdict on CCC(C)n1c(=N)c(C(=O)NC2CCCCC2)cc2c(=O)n3cc(C)ccc3nc21 (stereo not given) in this test?
Response given: 0

Challenge: Tell me the recorded outcome of this test for `CCn1c(=N)c(C(=O)NC2CCCCC2)cc2c(=O)n3cc(C)ccc3nc21` .
Response given: 0

Challenge: For `COc1cc2cc(CNc3ccccc3)c(=O)n(CC(=O)Nc3ccccc3)c2cc1OC` , which call appears in the assay record?
Response given: 0

* * *

Experimental system: Ataxin-2 (Homo sapiens)
Assay explanation: qHTS for Inhibitors of ATXN expression.
Assay type: functional
Hit rate of the full screen: of about 400,000 compounds, about 2,100 (0.53%) were called active. Not shown: some 14% with an inconclusive outcome. How the calls were made is not given here. The full list was thinned out, with actives kept by preference.
Can you answer with just one of these options? active, inactive

Challenge: For `COc1ccc(CCNC(=O)COc2ccc(S(=O)(=O)NC3CCCCC3)cc2Cl)cc1` , what call appears in the results of this test?
Response given: active

Challenge: Per the records of this test, what outcome belongs to NC(Cc1ccc(C(F)(F)F)cc1)c1csc(NC(=O)Nc2ccccc2Oc2ccccc2)n1 (stereo unspecified) ?
Response given: active

Challenge: In this assay, the call recorded for CCc1ccccc1N1CC(c2nnc(NC(=O)c3ccco3)s2)CC1=O (stereo unspecified) was what?
Response given: inactive

Challenge: Give the logged outcome of this assay for the following compound: `CC(=O)N1CCSc2ccc(S(=O)(=O)N3CCC(C)CC3)cc21`
Response given: inactive

Challenge: Tell me the recorded outcome of this test for CC(C)c1ccccc1NC(=O)Nc1nc(C(N)Cc2ccc(C(F)(F)F)cc2)cs1 (stereo unspecified) .
Response given: active

Challenge: Fill in: this test's call for CCCOc1cccc(C2c3c(oc4ccc(F)cc4c3=O)C(=O)N2CCCN2CCOCC2)c1 (stereo unspecified) is ___
Response given: inactive

Challenge: What did this assay record as the result for C=C1CC2(CC(c3ccccc3)OC(c3ccccc3)C2)OC1=O (stereo unspecified) ?
Response given: active

Challenge: Can you look up the reported call for `O=C(CCCN1C(=O)c2cccnc2C1=O)Nc1ccccc1F` for me?
Response given: inactive

Challenge: What classification did `O=C(c1cn(-c2ccccc2)nc1-c1cccnc1)N1CCN(S(=O)(=O)c2ccccc2F)CC1` end up with in this test?
Response given: inactive

Challenge: Give the logged outcome of this assay for the following compound: `Cc1ccc(N2CCN(S(=O)(=O)c3nnc(NC(=O)c4ccco4)s3)CC2)cc1`
Response given: inactive

Challenge: Call for entry `CCOC(=O)C[n+]1ccc2c([nH]c3ccccc32)c1C` :
Response given: inactive

Challenge: Per the assay record, what outcome was assigned to `O=C(CCN1C(=O)/C(=C/c2ccc(F)cc2)SC1=S)Nc1cccnc1` ?
Response given: inactive

Challenge: Called result for `COc1ccc([N+](=O)[O-])c(OC)c1C(=O)NC(=O)Nc1c(F)cc(F)cc1F`
Response given: inactive

Challenge: For `Cc1ccc(S(=O)(=O)NCCNc2ccc(Br)c(C)c2)cc1` , what call appears in the results of this test?
Response given: inactive

Challenge: How was `COc1cccc(-c2ccc3c(N)c(C(=O)Nc4cc(C(F)(F)F)ccc4OC)sc3n2)c1` classified in this test?
Response given: inactive

Challenge: Status in this test for `CCN1C(=O)c2cccc3c(S(=O)(=O)N4CCC(C)CC4)ccc1c23` ?
Response given: inactive

Challenge: Can you look up the reported call for `CN(C)Cc1csc(NC(=O)Nc2ccccc2Oc2ccccc2)n1` for me?
Response given: active

Challenge: Please state the recorded outcome for this compound: CC1CCN(S(=O)(=O)c2ccc3c4c2CC(=O)N4CC(C)S3)CC1 (stereo unspecified)
Response given: active

Challenge: Please state the recorded outcome for this compound: COc1ccc(CCNC(=O)C(=O)NCC2OCCN2S(=O)(=O)c2ccc(OC)c(OC)c2)cc1 (stereo unspecified)
Response given: inactive

Challenge: Entry `O=C(COc1ccc(F)cc1Cl)NC1CCCCCC1` : call = ?
Response given: inactive

Challenge: Identify the outcome logged in this assay for the compound shown: `COc1cc(/C=C2/C(=N)N3C(SC)=NSC3=NC2=O)ccc1OC(=O)c1ccco1`
Response given: inactive

src = ChEMBL document CHEMBL1201862
